Molecular target: UniProt Q920D2
Sequence (Q920D2 whole entry): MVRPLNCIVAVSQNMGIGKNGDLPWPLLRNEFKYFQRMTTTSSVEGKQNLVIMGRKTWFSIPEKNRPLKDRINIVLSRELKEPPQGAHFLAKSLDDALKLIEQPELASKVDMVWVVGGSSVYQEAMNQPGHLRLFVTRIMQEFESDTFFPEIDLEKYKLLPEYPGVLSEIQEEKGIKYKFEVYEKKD
Test: Concentration required to inhibit the rat liver Dihydrofolate reductase by 50% was determined
pIC50: −log10 of the molar value.
assay-metric: pIC50

[[record]]
molecule_smiles = "Nc1nc(N)c2nc(CSc3ccc(Sc4ccccc4)cc3)cnc2n1"
assay_metric = "pIC50"
measurement = 3.60

